# tested_system: DNA dC->dU-editing enzyme APOBEC-3F (Homo sapiens)
# measurement_notes: qHTS for inhibitors of Vif-A3F interactions: Cherry picks; also: nearly all actives have a fitted effect of over 70% in size; also: potency is read from the fitted curve at half-maximal effect
# condition: HeLa A3F-eYFP + Vif, eYFP fluorescence, 24 h
Among all 2,100 compounds or so, about 590 (28%) were called active. Inconclusive results (about 42%) are left out. The list shows a part of the results.
metric: Potency

structure	tested_system	Potency
Cn1cc(/C=C/c2ccc3ccccc3n2)c2ccccc21	DNA dC->dU-editing enzyme APOBEC-3F (Homo sapiens)	20.6 µM (active)
N#C/C(=C\c1cccc(O)c1)c1nc2ccccc2o1	DNA dC->dU-editing enzyme APOBEC-3F (Homo sapiens)	3.53 µM (active)
Cc1nc2cc(NC(=O)CSc3nc4c(C)cccc4cc3C#N)ccc2s1	DNA dC->dU-editing enzyme APOBEC-3F (Homo sapiens)	11.6 µM (active)
O=[N+]([O-])c1ccc(N/N=C\c2cccn2-c2ccccc2)nc1	DNA dC->dU-editing enzyme APOBEC-3F (Homo sapiens)	14 µM (active)
CC(C)OC(=O)c1c2c(n3ccccc13)C(=O)c1ccccc1C2=O	DNA dC->dU-editing enzyme APOBEC-3F (Homo sapiens)	4.61 µM (active)

Q: Supply recorded Potency for `N#C/C(=C/c1cccs1)c1ccccn1` here.
Ans: 17.7 µM (active)

Q: Specify measured Potency for `COc1ccccc1-c1cc(NC=O)c2ncc(-c3ccc(S(C)(=O)=O)cc3)n2c1` .
Ans: 7.04 µM (active)

Q: Look up and report measured Potency for this entry: `Cc1ccc2nc(/C(C#N)=C/c3ccc(-c4cccc(Cl)c4)o3)[nH]c2c1`
Ans: 4.61 µM (active)

---

# tested_system: DNA dC->dU-editing enzyme APOBEC-3F (Homo sapiens) (UniProt Q8IUX4)
# Sequence (Q8IUX4 whole entry, looked up): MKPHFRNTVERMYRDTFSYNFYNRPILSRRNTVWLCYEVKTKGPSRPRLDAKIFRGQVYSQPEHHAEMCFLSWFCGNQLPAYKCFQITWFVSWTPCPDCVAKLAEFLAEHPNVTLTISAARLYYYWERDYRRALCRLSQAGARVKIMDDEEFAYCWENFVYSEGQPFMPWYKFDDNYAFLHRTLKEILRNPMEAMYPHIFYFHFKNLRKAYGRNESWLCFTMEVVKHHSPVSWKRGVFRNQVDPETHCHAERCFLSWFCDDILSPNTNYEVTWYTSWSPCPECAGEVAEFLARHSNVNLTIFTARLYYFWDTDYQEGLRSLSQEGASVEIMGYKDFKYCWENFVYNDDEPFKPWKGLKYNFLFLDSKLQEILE
# measurement_notes: qHTS for inhibitors of Vif-A3F interactions: Cherry picks; also: nearly all actives have a fitted effect of over 70% in size;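 as to max response: % of control where 0% means no effect; active compounds raise eYFP fluorescence by blocking Vif-driven A3F loss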
# condition: HeLa A3F-eYFP + Vif (tagged APOBEC3F with the HIV-1 protein that degrades it), eYFP fluorescence, 24 h
The whole screen tested about 2,100 compounds, of which about 590 (28%) were called active. Inconclusive results (about 42%) are left out. The list shows a part of the results.
metric: max response (%)
The response must be a number in % with no trailing unit.

compound	tested_system	max response / %
COc1ccc(NC(=O)CN2C(=O)C3(SCC(=O)N3c3ccccc3)c3ccccc32)cc1Cl (stereo not drawn)	DNA dC->dU-editing enzyme APOBEC-3F (Homo sapiens) (UniProt Q8IUX4)	-11.4
COc1ccccc1/C=N/NC(=S)Nc1cccnc1	DNA dC->dU-editing enzyme APOBEC-3F (Homo sapiens) (UniProt Q8IUX4)	-4.95
O=[N+]([O-])c1ccccc1C1Nc2cccc3cccc(c23)N1	DNA dC->dU-editing enzyme APOBEC-3F (Homo sapiens) (UniProt Q8IUX4)	1.22
C[N+](C)(C)CCC(=O)N1C/C(=C/c2ccccc2)C(=O)/C(=C\c2ccccc2)C1	DNA dC->dU-editing enzyme APOBEC-3F (Homo sapiens) (UniProt Q8IUX4)	-12.6
N#CC1CC(c2ccccc2)Nc2cc(Cl)ccc2N1 (stereo not drawn)	DNA dC->dU-editing enzyme APOBEC-3F (Homo sapiens) (UniProt Q8IUX4)	-26.3

Q: Fill in max response for record `O=C(CN1c2cccc3cccc(c23)S1(=O)=O)Nc1ccc(S(=O)(=O)N2CCOCC2)cc1`
Ans: -0.998

Q: Specify reported max response for the compound shown: `Cc1ccc2nc(C)c(C(=O)NN=C3CCCCCC3)n2c1`
Ans: -15.2

Q: Kindly indicate its recorded max response. Item: `Cc1cccc(C(=O)NC(=S)N2CCc3ccccc3C2)c1`
Ans: 0.715

Q: Specify measured max response for `O=C(COC(=O)C12CC3CC(CC(Cl)(C3)C1)C2)N1CCCCC1` .
Ans: 1.53

Q: Quote max response reported for CCOC(=O)C1CCCN(C(=O)c2ccc3nc(-c4cccc(OC)c4)oc3c2)C1 (stereo not drawn) please.
Ans: -18.5

Q: // Input: `CCOc1ccc(N/C=C/C(=O)c2cc(OC)c(OC)c(OC)c2)cc1` . Output its max response only.
Ans: -29.8

Q: Give a short answer stating reported max response for O=C1N/C(=N\N=C\c2ccco2)SC1Cc1ccccc1[N+](=O)[O-] (stereo not drawn) .
Ans: -0.95

Q: Give the measured max response for `COc1cc(/C=C2\C(=N)N3N=C(S(C)(=O)=O)SC3=NC2=O)ccc1OC(=O)c1ccco1`
Ans: 3.53

Q: Name the recorded max response of the compound listed here: `O=S(=O)(N=C1C=CC(=NS(=O)(=O)c2ccccc2)c2ccccc21)c1ccccc1`
Ans: -24.1

Q: Quickly give me recorded max response for O=C(c1ccccn1)C1CCCN(Cc2cn[nH]c2-c2cc3ccccc3o2)C1 (stereo not drawn)
Ans: 1.54

Q: Identify measured max response corresponding to `Cc1ccc2nc(/C(C#N)=C/c3ccc(-c4ccccc4C(=O)O)o3)[nH]c2c1`
Ans: -7.06

Q: # return recorded max response for input `COc1ccc2oc(=Nc3ccccc3)c(-c3nc4ccccc4[nH]3)cc2c1`
Ans: -13

Q: Tell me max response reported for `CCOc1ccc(Br)cc1C(=O)Nc1ccc(C(=O)NCC(C)C)cc1`
Ans: -8.08

Q: Provide only the value of recorded max response for `Cn1nnnc1SCCNCc1cc(Br)ccc1OCc1ccccc1Cl`
Ans: -14.7

Q: Supply measured max response of `O=C(Nc1ccc(Cl)cn1)c1cccc(S(=O)(=O)N2CCCCCC2)c1` in your reply.
Ans: -1
